- measured_target: human MAO-B (Homo sapiens)
- Sequence (P27338 whole entry): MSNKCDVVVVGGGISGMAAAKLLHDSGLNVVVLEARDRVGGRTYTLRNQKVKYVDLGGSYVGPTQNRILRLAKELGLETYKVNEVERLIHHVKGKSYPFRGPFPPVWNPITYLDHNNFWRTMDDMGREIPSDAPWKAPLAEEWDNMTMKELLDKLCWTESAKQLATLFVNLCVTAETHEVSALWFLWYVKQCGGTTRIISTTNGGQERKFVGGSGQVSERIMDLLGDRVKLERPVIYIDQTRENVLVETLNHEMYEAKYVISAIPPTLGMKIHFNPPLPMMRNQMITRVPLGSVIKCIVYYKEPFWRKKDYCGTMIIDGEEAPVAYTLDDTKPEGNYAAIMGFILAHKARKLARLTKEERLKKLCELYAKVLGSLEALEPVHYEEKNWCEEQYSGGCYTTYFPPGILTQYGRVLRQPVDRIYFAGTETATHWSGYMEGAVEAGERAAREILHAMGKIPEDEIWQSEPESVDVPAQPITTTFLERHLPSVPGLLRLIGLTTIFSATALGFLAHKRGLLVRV
Where a name gives a salt, the structure may show the parent alone.
Readings of IC50 for the listed molecules

Check out these entries, answers already filled in.
[
  {
    "molecule": "N#CCN1C(=O)c2ccc(OCc3ccc(F)cc3)cc2C1=O [Example 7]",
    "IC50": "34 nM"
  },
  {
    "molecule": "NCCN1C(=O)c2ccc(OCc3ccc(F)cc3)cc2C1=O [Example 9, hydrochloride]",
    "IC50": "32 nM"
  },
  {
    "molecule": "CCSCCN1C(=O)c2ccc(OCc3ccc(F)cc3)cc2C1=O [Example 19]",
    "IC50": "11 nM"
  },
  {
    "molecule": "NCCN1C(=O)c2ccc(OCc3cccc(F)c3)cc2C1=O [Example 50, hydrochloride]",
    "IC50": "39 nM"
  },
  {
    "molecule": "COC[C@H](C)N1C(=O)c2ccc(OCc3ccc(Br)cc3)cc2C1=O [Example 28]",
    "IC50": "34 nM"
  }
]

Continue with the next molecule.
// query Tell me IC50 of COC[C@H](C)N1C(=O)c2ccc(OCc3ccc(C#N)cc3)cc2C1=O [Example 30] when tested on human MAO-B (Homo sapiens).
// result 129 nM

* * *

- measured_target: human MAO-A (Homo sapiens, UniProt P21397)
- Construct: expressed in transfected cells; host or cells: EBNA cells (transient transfection; cell membranes used)
- Sequence (P21397 whole entry): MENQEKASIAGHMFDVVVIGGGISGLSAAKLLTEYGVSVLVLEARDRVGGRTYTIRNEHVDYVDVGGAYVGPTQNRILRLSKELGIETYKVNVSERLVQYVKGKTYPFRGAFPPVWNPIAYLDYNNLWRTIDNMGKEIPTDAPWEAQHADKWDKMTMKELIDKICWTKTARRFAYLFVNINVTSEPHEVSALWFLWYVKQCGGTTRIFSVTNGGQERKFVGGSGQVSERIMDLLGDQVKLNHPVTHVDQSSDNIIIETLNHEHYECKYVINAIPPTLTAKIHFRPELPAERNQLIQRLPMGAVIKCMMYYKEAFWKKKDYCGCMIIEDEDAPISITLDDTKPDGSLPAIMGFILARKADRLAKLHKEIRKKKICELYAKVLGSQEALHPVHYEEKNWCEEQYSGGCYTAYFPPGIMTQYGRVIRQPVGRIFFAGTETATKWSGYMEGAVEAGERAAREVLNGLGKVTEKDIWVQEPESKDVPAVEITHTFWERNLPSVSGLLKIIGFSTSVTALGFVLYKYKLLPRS
- assay_comment: MAO-A enzymatic activity, spectrophotometric assay (Amplex Red, tyramine substrate) on membranes of transfected EBNA cells
- Format: biochemical
- assay_context: 30 min preincubation at 37° C., pH 7.4, tyramine substrate
pIC50: −log10 of the molar value. Counter-ions that a name gives are not always drawn.
Readings of pIC50 for the listed compounds

[
  {
    "compound": "NCCN1C(=O)c2ccc(OCc3cccc(F)c3)cc2C1=O [Example 50, hydrochloride]",
    "pIC50": "< 5.00"
  }
]

// query Give pIC50 for the following compound: COC[C@H](C)N1C(=O)c2ccc(OCc3cccc(OC)c3)cc2C1=O
// result < 5.00

// query Give pIC50 for the following compound: COC[C@H](C)N1C(=O)c2ccc(OCc3ccc(OC(F)(F)F)cc3)cc2C1=O
// result < 5.00

// query Give pIC50 for the following compound: NC(=O)CC(O)CN1C(=O)c2ccc(OCc3ccc(F)cc3)cc2C1=O (stereo not shown)
// result < 5.00

// query Give pIC50 for the following compound: NCCN1C(=O)c2ccc(OCc3ccc(F)cc3)cc2C1=O [Example 9, hydrochloride]
// result < 5.00

// query Give pIC50 for the following compound: COC[C@H](C)N1C(=O)c2ccc(OCc3ccc(Br)cc3)cc2C1=O
// result < 5.00

* * *

- measured_target: human MAO-A (Homo sapiens)
Readings of pIC50 for the listed compounds
Scale note: pIC50 = -log10(concentration in M).

[
  {
    "smiles_structure": "C[C@@H](C(N)=O)N1C(=O)c2ccc(OCc3ccc(F)cc3)cc2C1=O",
    "measured_target": "human MAO-A (Homo sapiens)",
    "pIC50": 6.11
  }
]

Continue with the next compound.
// query Give pIC50 for the following compound: O=C1c2ccc(OCc3ccc(F)cc3)cc2C(=O)N1CCO
// result 6.43
